# key: entry, value: TGI
Tested on: T-47D breast
Test: NCI tumour cell line growth inhibition, 48 h
Give the number; µM is assumed, so skip it.

{"smiles.str": "Clc1ccc(Cc2nc3ccccc3nc2-c2cccc(Br)c2)cc1", "result.type": "TGI", "test.value": 4.54}

Query: TGI; subject: O=C1C=CC(=O)C(CNc2ccc(C(=O)OC34CC5CC(CC(C5)C3)C4)cc2)=C1
6.88

###

Test system: MALME-3M melanoma
Assay: NCI tumour cell line growth inhibition, 48 h
result.type: TGI

Below, 4 molecules whose answers are already recorded.
{"molecule": "CC1CCP(=O)(c2ccccc2)c2ccccc21 (stereo not given)", "test.value": "> 100 µM"}
{"molecule": "Cc1ccc(C(C)(C)C[P+](C)(c2ccccc2)c2ccccc2)cc1", "test.value": "> 48.8 µM"}
{"molecule": "COc1ccc(Nc2ncc(Br)c(NCCCNC(=O)C3CCC3)n2)cc1", "test.value": "> 100 µM"}
{"molecule": "COc1ccc2c(c1)C(N)=C(c1ccccc1)C2=O", "test.value": "> 100 µM"}

With those in mind, consider the next molecule.
Form: Entry = c1ccc(CCN2CCc3[nH]c4ccccc4c3C2)cc1 | System = MALME-3M melanoma | TGI = ____
32.8 µM

###

Here, each record is paired with measured TGI data.
Test system: SNB-78 CNS
Assay: NCI tumour cell line growth inhibition, 48 h

{"molecule": "O=c1[nH]c(=O)n([C@@H]2C[C@H](CO)[C@H](O)C2)cc1/C=C/Br", "subject.of.test": "SNB-78 CNS", "test.value": "> 100 µM"}
{"molecule": "COc1ccccc1N=C(N)N/N=C/c1c[nH]c2ccccc12", "subject.of.test": "SNB-78 CNS", "test.value": "25.1 µM"}
{"molecule": "COC(=O)C1C(O)CC(c2ccccn2)N(Cc2ccccc2)C1c1ccccn1 (stereo not given)", "subject.of.test": "SNB-78 CNS", "test.value": "> 100 µM"}
{"molecule": "CCCNCCCC(NC(C)=O)C(=O)NCc1ccccc1 (stereo not given)", "subject.of.test": "SNB-78 CNS", "test.value": "> 100 µM"}
{"molecule": "CC1(C)C(=O)C(C)(C)C1=NN", "subject.of.test": "SNB-78 CNS", "test.value": "> 100 µM"}

Continue with the next molecule.
Please report the recorded TGI for NC1CCCCC1.[O]=[Ge].[O]=[Ge].[O]=[Ge][OH].[O]=[Ge][OH] .
> 100 µM

###

System: SK-MEL-28 melanoma
Test: NCI tumour cell line growth inhibition, 48 h
result.type: TGI

See these solved cases before continuing.
{"compound": "CC1OC2=N[C@@H]1C(=O)N[C@@H](C(C)C)C1=N[C@H](C(=O)N[C@@H](C(C)C)C3=N[C@H](C(=O)N[C@@H](C(C)C)C4=N[C@H](C(=O)N[C@H]2C(C)C)C(C)O4)C(C)O3)C(C)O1 (stereo not given in full)", "TGI": "> 10 µM"}
{"compound": "Oc1ccc(C(c2ccc(O)cc2)c2ccc(Cl)cn2)cc1", "TGI": "> 100 µM"}
{"compound": "Cc1ccncc1.F[B-](F)(F)F.[Pt+2].c1ccc(-c2cccc(-c3ccccn3)n2)nc1", "TGI": "> 100 µM"}
{"compound": "CCOC(=O)C1(Br)C(c2ccccc2)NC(=O)NC1(C)Br (stereo not given)", "TGI": "> 100 µM"}
{"compound": "CC(=O)/C(=C/n1c(=S)[nH]c2ccccc21)C(=O)Nc1ccccc1C", "TGI": "> 100 µM"}

Give its TGI value. Item: N=C1N(S(=O)(=O)c2ccccc2)[C@@H](Cc2ccccc2)[C@H](c2ccccc2)C1(c1ccccc1)c1ccccc1
> 100 µM

# lookup: TGI of CC(C)=CCC[C@@H](C)C1=C(Nc2ccccc2Cl)C(O)=C(C)C(=O)C1=O
33.5 µM

Consider the compound CC1OC(OCC2OC(Oc3c(-c4ccc(O)cc4)oc4cc(O)cc(O)c4c3=O)C(OC3OC(C)C(O)C(O)C3O)C(O)C2O)C(O)C(O)C1O (stereo not given) and give its measured TGI.
> 100 µM

Would you kindly share the measured TGI for CCCCCCCNc1nc(C(=O)OCC)ncc1-c1ccc(C(F)(F)F)cc1 ?
> 100 µM

I have this compound here, CCOC(=O)C(=[N+]=[N-])C(=O)Nc1nn2nnnc2c2ccccc12 , and I need its recorded TGI.
> 100 µM

###

Tested on: MALME-3M melanoma
Test: NCI tumour cell line growth inhibition, 48 h
result.type: GI50

See these solved cases before continuing.
{"smiles.str": "CN(C)c1ccc([O-])cc1.CN(C)c1ccc([O-])cc1.CN(C)c1ccc([O-])cc1.CN(C)c1ccc([O-])cc1.[Ti+4]", "test.value": "> 100 µM"}
{"smiles.str": "C1C[OH+]CC[OH+]CCNCC[OH+]CC[OH+]CCN1.[Cl-].[Pt+4]", "test.value": "> 100 µM"}

Could you share which GI50 value was measured for Cc1ccc(/C(=N\N=C(N)N)c2ccccc2)cc1 ?
0.391 µM

###

List of TGI values.
System: K-562 leukemia
Assay: NCI tumour cell line growth inhibition, 48 h

Answered cases to consult:
{"molecule": "COc1ccccc1/C=C/[N+](=O)[O-]", "subject.of.test": "K-562 leukemia", "TGI": "7.37 µM"}
{"molecule": "O=C(/C=C/C12c3ccccc3C(c3ccccc31)C1C(=O)N(c3ccccc3)C(=O)C12)c1ccccc1 (centres undefined)", "subject.of.test": "K-562 leukemia", "TGI": "> 100 µM"}
{"molecule": "CC1CC#CCOC(=O)CCCC1=O (centres undefined)", "subject.of.test": "K-562 leukemia", "TGI": "> 100 µM"}
{"molecule": "C=C1SC(=Nc2c(C)cc(C)cc2C)N(C(=O)c2sc3ccccc3c2Cl)C12CCCCC2", "subject.of.test": "K-562 leukemia", "TGI": "> 100 µM"}
{"molecule": "CCCn1c(SC)nc(COC(=O)NC)c1COC(=O)NC", "subject.of.test": "K-562 leukemia", "TGI": "> 100 µM"}
{"molecule": "Cc1ccc(C(=O)N/N=C(\\N=Nc2cccc(Cl)c2)c2ccc(N(CCC#N)CCC#N)cc2C)cc1", "subject.of.test": "K-562 leukemia", "TGI": "> 100 µM"}

Which TGI is listed for O=C(Nc1cccc([N+](=O)[O-])c1)C(=O)C(C(=O)c1ccccc1-c1ccccc1)C1OC(=O)c2ccccc21 (centres undefined) ?
> 100 µM

Which value of TGI has been reported for CCOC(=O)C1=C(C(=O)c2ccc(C)cc2)C(c2cccc([N+](=O)[O-])c2)C(C(=O)c2ccc(C)cc2)=C(C(=O)OCC)N1 in the records?
57.9 µM

What does the data say about its TGI? Entry: O=C([CH-]C(=O)c1ccccc1)c1ccccc1.O=C([CH-]C(=O)c1ccccc1)c1ccccc1.O=C([CH-]C(=O)c1ccccc1)c1ccccc1.[Nd+3].[OH3+]
16.7 µM

###

System: M19-MEL melanoma
Test: NCI tumour cell line growth inhibition, 48 h
Parameter TGI: see the listing below.

Example compounds with recorded TGI:
{"compound": "COC(=O)C(C(=O)C(=O)Nc1ccc(C(F)(F)F)cc1[N+](=O)[O-])c1csc(-n2nc(-c3ccccc3)cc2-c2ccccc2)n1 (stereo not given)", "TGI": "> 100 µM"}
{"compound": "CC(C)=CCC/C(C)=C/CC/C(C)=C/Cc1c(O)c2ccccc2oc1=O", "TGI": "> 100 µM"}
{"compound": "O=C(Nc1ccc(Cl)cc1Cl)C(=O)C(C(=O)c1ccc2ccccc2c1)C1OC(=O)c2ccccc21 (stereo not given)", "TGI": "30.3 µM"}
{"compound": "COC(=O)C1C(O)CC(c2ccccn2)N(Cc2ccccc2)C1c1ccccn1 (stereo not given)", "TGI": "> 100 µM"}
{"compound": "CC(=O)NNc1nc(C)c(C(=O)NNC(=O)C(=O)Nc2c(C)cccc2C)s1", "TGI": "79.7 µM"}

Look at this compound and give its reported TGI. CCCCC1CC(c2cccc([N+](=O)[O-])c2)=NO1 (stereo not given)
> 100 µM

Query (compound): OCCCOC(c1ccccc1)(c1ccccc1)c1ccccc1 ; field requested: TGI
> 100 µM

Return reported TGI; argument: CC(=O)N[C@@H]1C(O)CN2C(=O)C(=O)O[C@H](C(O)CO)[C@@H]12 (stereo not given in full)
> 100 µM

For O=C(O)C1C2CCC(O2)C1C(=O)N1CCCCC1 (stereo not given) , what is its reported TGI?
21.9 µM

Which TGI reading was recorded for the compound COc1cc(/C=C\c2ccc(C)cc2)cc(OC)c1OC ?
> 100 µM

###

Tested on: MALME-3M melanoma
Experiment: NCI tumour cell line growth inhibition, 48 h
result.type: TGI

Sample records with TGI:
{"compound": "CC(C)CNCC(O)COc1ccc(C(C)(C)c2ccc(OCC(O)CNCC(C)C)cc2)cc1 (stereo not drawn)", "result.type": "TGI", "test.value": "3.32 µM"}
{"compound": "CC1OC(OCC2OC(Oc3c(-c4ccc(O)cc4)oc4cc(O)cc(O)c4c3=O)C(OC3OC(C)C(O)C(O)C3O)C(O)C2O)C(O)C(O)C1O (stereo not drawn)", "result.type": "TGI", "test.value": "> 100 µM"}
{"compound": "Cc1cccc2c1[nH]c1[nH]c(=O)[nH]c(=O)c12", "result.type": "TGI", "test.value": "> 100 µM"}
{"compound": "O=C([CH-]C(=O)c1ccccc1)c1ccccc1.O=C([CH-]C(=O)c1ccccc1)c1ccccc1.O=C([CH-]C(=O)c1ccccc1)c1ccccc1.[Nd+3].[OH3+]", "result.type": "TGI", "test.value": "36.4 µM"}
{"compound": "CSC(CC(=O)O)C(=O)O (stereo not drawn)", "result.type": "TGI", "test.value": "> 100 µM"}
{"compound": "Cc1ccc(C2=NOC(=O)[C@@H]3CCCC[C@@H]23)cc1", "result.type": "TGI", "test.value": "> 100 µM"}
{"compound": "O=C1C(c2c[nH]c3ccccc23)=C(c2c[nH]c3ccccc23)C(=O)N1O", "result.type": "TGI", "test.value": "> 25 µM"}
{"compound": "O=C(/C(=C\\C(=O)c1cccs1)c1ccsc1)c1ccc(Br)cc1", "result.type": "TGI", "test.value": "> 100 µM"}

Form: Entry = CCOC(=O)C1(C(=O)OCC)[C@H](c2ccccc2)C2=NO[C@@H]3CCC[C@H]1[C@H]23 | System = MALME-3M melanoma | TGI = ____
> 100 µM

Write down the reported TGI of CCCCC1CC(c2cccc([N+](=O)[O-])c2)=NO1 (stereo not drawn) , test system: MALME-3M melanoma.
> 100 µM

What value of TGI on MALME-3M melanoma does O=C(Nc1cccc([N+](=O)[O-])c1)C(=O)C(C(=O)c1ccccc1-c1ccccc1)C1OC(=O)c2ccccc21 (stereo not drawn) have?
34.5 µM

Find the measured TGI: item CCO/C=C/C(C)C1(C(=O)OCC)CCCCC1=O (stereo not drawn) , target or system MALME-3M melanoma.
> 100 µM

TGI of COc1ccc(-c2oc3c(OC)c(OC)c(OC)c(O)c3c(=O)c2OC)cc1OC on MALME-3M melanoma?
97.1 µM

// map CCOC(=O)C(NC(=O)N(C1=NCC(C)S1)C1CCCCC1)(OC)C(F)(F)F (stereo not drawn) to recorded TGI (system: MALME-3M melanoma)
> 100 µM

Give recorded TGI with MALME-3M melanoma for the following compound: COc1ccc(-c2cc(=O)c3c(C)cc(C)nc3[nH]2)cc1
88 µM

Lab note: need TGI for Cc1ccc(S(=O)(=O)NCCNC2=CC(=O)c3nc4ccccc4c4ccnc2c34)cc1 on MALME-3M melanoma, anyone have it?
54.5 µM

Data provenance: PubChem BioAssay (NCI)
